Source of measurements: PubChem BioAssay AID1117361

target: Protein Tat (Human immunodeficiency virus type 1 group M subtype B (isolate HXB2)) (UniProt P04608); test: inhibitors of Tat binding to TAR RNA, dose response, counter-screen for Vif-APOBEC3G degradation inhibitor project, biochemical, fluorescence polarization, FAM-labeled TAR RNA (AID 1117361)
Sequence (P04608 whole entry, looked up): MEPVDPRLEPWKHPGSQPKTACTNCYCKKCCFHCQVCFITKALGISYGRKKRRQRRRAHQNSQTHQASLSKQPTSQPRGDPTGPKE
// IC50 lookup, one value per entry

compound | value
N#C/C(=C/c1ccc(Br)o1)C(N)=S | 16 µM
CCCCN1C(=O)/C(=C/C=C/c2ccco2)C(=O)NC1=S | 21.7 µM
O=C(CCCN1C(=O)/C(=C\c2ccco2)SC1=S)Nc1ccc2ccccc2c1 | 48.3 µM
Cc1cc(C(=O)CSc2nnnn2-c2ccccc2)c(C)n1CC1CCCO1 (stereo not given) | 35 µM

Which IC50 is reported for this compound? c1cncc(-c2nnc3sc(-c4ccco4)nn23)c1
64 µM

Would you mind telling me what IC50 value was observed for Cc1noc(/C=C/c2ccco2)c1S(=O)(=O)N1CCC(C(=O)NCc2ccco2)CC1 ?
6.93 µM

Returns the measured IC50 for the input compound. Input: CC(C)c1ccc(N2C(=O)NC(=O)/C(=C\C=C\c3ccco3)C2=O)cc1
34.2 µM

What value of IC50 has been reported for the following compound? Cc1c2ccccc2nc2c(F)c(N(C)C)c(F)c(F)c12
6.51 µM

Which IC50 reading was recorded for the compound CCOc1ccc2[nH]c(=O)c(CN(Cc3nnnn3Cc3ccco3)C3CCCCC3)cc2c1 ?
24.9 µM

Look up IC50 for this compound: CC(C)C1Nc2ccc(C(=O)O)cc2C2C=CCC21 (stereo not given)
4.93 µM

---

Listing of recorded pIC50 by entry.
biological target: Protein Tat (Human immunodeficiency virus type 1 group M subtype B (isolate HXB2)) (UniProt P04608); assay: inhibitors of Tat binding to TAR RNA, dose response, counter-screen for Vif-APOBEC3G degradation inhibitor project, biochemical, fluorescence polarization, FAM-labeled TAR RNA (AID 1117361)
Keep in mind that pIC50 stands for -log10 of concentration in molar terms.

molecule | value
C=CCN1C(=O)/C(=C\c2ccco2)C(C(=O)OC)=C1C | 4.34
CCOC(=O)C1=C(N)n2c(s/c(=C/c3ccco3)c2=O)=C(C(=O)OC)C1c1ccco1 (stereo not drawn) | 5.01
N#C/C(=C/c1ccc(N2CCCCCC2)o1)c1cccc(F)c1 | 4.01
Cc1ccc(/C=C/C(=O)Nc2cccc(S(=O)(=O)N3CCOCC3)c2)o1 | 4.05
CCOC(=O)C1CCCN(C(=O)c2ccc(CNc3c(N4CCC(C)CC4)c(=O)c3=O)cc2)C1 (stereo not drawn) | 4.19
O=C(Nc1ccc2nc(-c3ccco3)c(-c3ccco3)nc2c1)N1CCCCCC1 | 5.45
O=S(=O)(c1ccc(OCC(O)CN2CCC(Cc3ccccc3)CC2)cc1)N1CCOCC1 (stereo not drawn) | 4.99

Please turn your attention to the following entry.
What value of measured pIC50 is listed for CCN(CC)c1ccc(/C=N/n2c(C)cc(C)cc2=O)cc1 ?
5.28

---

target: Protein Tat (Human immunodeficiency virus type 1 group M subtype B (isolate HXB2)) (UniProt P04608); assay: inhibitors of Tat binding to TAR RNA, dose response, counter-screen for Vif-APOBEC3G degradation inhibitor project, biochemical, fluorescence polarization, FAM-labeled TAR RNA (AID 1117361)
experimentalReadout: pIC50
# reply with the number alone; pIC50 is -log10 of concentration in mol/L

Here are 3 compounds together with their reported answers.
compound | experimentalReadout | value
COc1ccc2ccccc2c1C1CC(=O)N2CN(Cc3ccco3)CSC2=C1C#N (centres undefined) | pIC50 | 4.17
O=C(COC(=O)c1ccccc1)Nc1ncc([N+](=O)[O-])s1 | pIC50 | 4.69
CCOc1cccc(=O)c2c(C)n(Cc3ccco3)c(C)c12 | pIC50 | 5.53

Now consider the entry below.
What value of pIC50 has been reported for the following compound? Cc1ccc(N(CC(=O)NCCSCc2ccco2)S(=O)(=O)c2ccc(F)cc2)cc1
4.20
